Give measured residual activity for each item. Keep answers brief.
target: TEK (human) (UniProt Q02763); test: radiometric filter-binding kinase assay, Kinase HotSpot; settings: compound 0.5 µM; ATP 10 µM
Sequence (Q02763 whole entry, looked up): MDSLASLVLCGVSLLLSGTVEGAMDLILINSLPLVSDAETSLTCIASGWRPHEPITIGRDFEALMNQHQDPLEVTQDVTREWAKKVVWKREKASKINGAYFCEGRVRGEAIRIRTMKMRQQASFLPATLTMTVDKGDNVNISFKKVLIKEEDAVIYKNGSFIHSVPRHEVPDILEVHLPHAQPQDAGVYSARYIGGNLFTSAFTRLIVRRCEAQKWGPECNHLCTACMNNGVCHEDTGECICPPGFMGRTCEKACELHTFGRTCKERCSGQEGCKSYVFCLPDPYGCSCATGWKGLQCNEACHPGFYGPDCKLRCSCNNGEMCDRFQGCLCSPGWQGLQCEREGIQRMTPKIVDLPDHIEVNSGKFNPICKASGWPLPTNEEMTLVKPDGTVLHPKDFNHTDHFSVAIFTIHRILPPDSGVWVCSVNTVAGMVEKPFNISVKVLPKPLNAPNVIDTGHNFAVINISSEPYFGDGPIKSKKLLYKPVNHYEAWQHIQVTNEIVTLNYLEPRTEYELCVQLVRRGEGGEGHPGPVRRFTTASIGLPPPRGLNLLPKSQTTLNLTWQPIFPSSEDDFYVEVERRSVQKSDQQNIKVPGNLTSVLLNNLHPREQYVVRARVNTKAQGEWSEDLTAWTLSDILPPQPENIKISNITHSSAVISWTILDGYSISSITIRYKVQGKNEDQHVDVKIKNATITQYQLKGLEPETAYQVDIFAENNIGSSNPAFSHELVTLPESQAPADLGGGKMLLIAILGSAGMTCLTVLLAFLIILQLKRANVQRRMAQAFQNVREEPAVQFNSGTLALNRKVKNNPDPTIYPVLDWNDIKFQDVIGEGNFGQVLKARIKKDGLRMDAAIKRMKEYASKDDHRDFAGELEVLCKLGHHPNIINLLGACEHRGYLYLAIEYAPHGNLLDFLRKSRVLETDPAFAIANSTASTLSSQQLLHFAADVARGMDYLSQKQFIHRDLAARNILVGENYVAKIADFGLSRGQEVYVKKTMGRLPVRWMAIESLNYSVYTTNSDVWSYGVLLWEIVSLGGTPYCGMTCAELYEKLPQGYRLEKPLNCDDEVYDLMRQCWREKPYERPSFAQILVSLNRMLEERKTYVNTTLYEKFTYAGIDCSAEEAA
The reply should be a number in %, with the unit left off.

# query: residual activity of entry `CCc1nc(-c2ccc(OC)cc2)[nH]c1-c1ccncc1`
99.1

Which value of residual activity has been reported for `N/C(=N\N=C/c1ccc(-c2cccc([N+](=O)[O-])c2)o1)N[N+](=O)[O-]` in the records?
99.6

Could you tell me which residual activity is on file for `COc1cc2c(cc1OC)-c1[nH]nc(Nc3cccc(F)c3)c1C2` ?
92.5

What value of measured residual activity is listed for `Cc1cc(Nc2nc(-c3ccccc3)nc3ccccc23)n[nH]1` ?
104

# lookup: residual activity of `CCCCc1c(-c2ccc(O)cc2)[nH]c2nccnc12`
97

Returns the measured residual activity for the input compound. Input: `COc1cc2c(Nc3ccc(Br)cc3F)ncnc2cc1OCC1CCN(C)CC1`
50.8

Look at this compound and give its reported residual activity. `O=C1NC(=O)c2cc(Nc3ccc(F)cc3)c(Nc3ccc(F)cc3)cc21`
97.6

Returns the measured residual activity for the input compound. Input: `COc1cccc(-c2cc(=O)c3ccccc3o2)c1N`
93.1

Item under review: `O=C(O)c1ccc2c3c1cccc3c(=O)n1c3ccccc3nc21` . Reported residual activity?
102

Consider the compound `O=c1c(-c2ccc(F)cc2)c(-c2ccncc2)[nH]n1-c1ccc(Cl)cc1` and give its measured residual activity.
94.4

---

target: HIPK4 (human); test: radiometric filter-binding kinase assay, Kinase HotSpot; conditions: compound 0.5 µM; ATP 10 µM
PARAMETER: residual activity (%)
// note: answer is a bare numeric in %

Param item = `N#C/C(=C1/Nc2ccccc2S1)c1ccnc(NCCc2cccnc2)n1` ; retrieve measured residual activity.
97.6

Which residual activity is reported for this compound? `CCCCc1c(-c2ccc(O)cc2)[nH]c2nccnc12`
108

Which measured residual activity value corresponds to `COc1cc2ncnc(Nc3ccc(O)c(Br)c3)c2cc1OC` ?
107

Name the reported residual activity value associated with the compound `CCOc1cc2ncnc(Nc3cccc(Br)c3)c2cc1OCC`
89.9

Field request: residual activity | item: `Nc1ncnc2c1cnn2-c1ccccc1`
86.3

Suppose we examine the compound `O=c1cc(N2CCOCC2)oc2c(-c3ccccc3)cccc12` ; what residual activity value has been reported?
102

Which residual activity is reported for this compound? `N#CCCc1ccc2c(c1)-c1[nH]c3ccc([N+](=O)[O-])cc3c1CC(=O)N2`
113

Entry `O=C1NC(=O)c2c1c1c3ccccc3[nH]c1c1[nH]c3cc(Br)ccc3c21` : reported residual activity = ?
94.1

Reported residual activity, compound `COc1cc2c(cc1OC)-c1[nH]nc(Nc3cccc(F)c3)c1C2` : ____
90

Which residual activity value is on record for `O=c1[nH]c2ccccc2n1C1CCN(Cc2ccc(-c3nc4cc5[nH]cnc5cc4nc3-c3ccccc3)cc2)CC1` ?
99.3

Which residual activity is listed for `Cn1cc(/C=C2\C(=O)Nc3ccc(S(N)(=O)=O)cc32)c2ccccc21` ?
86.2

Give the measured residual activity of `COc1cc2c(N3CCN(C(=O)Nc4ccc(OC(C)C)cc4)CC3)ncnc2cc1OCCCN1CCCCC1` .
99.5

I am curious: what residual activity value has been reported for `O=c1c2ccccc2[nH]c(=S)n1CCN1CCC(=C(c2ccc(F)cc2)c2ccc(F)cc2)CC1` ?
98.4

# residual activity lookup, item `N/C(=N\N=C/c1ccc(-c2cccc([N+](=O)[O-])c2)o1)N[N+](=O)[O-]`
102

# input compound: `O=C1NC(=O)c2cc(Nc3ccc(F)cc3)c(Nc3ccc(F)cc3)cc21` ; wanted: its residual activity
82.5
